Entries and their measured protein stability index follow.
- experimental protocol: protein stability index of a GFP-peptide fusion (yeast GPS) (PSI 1-4); higher = more stable; sorted into four equal gates, so the index is relative within each strain
- conditions used: pdr5∆
Returns: the value as a bare number; no unit string appended.

AVKNKYNVGKQLSNEII [PRP28] : 2.52
SKYLIKQIDIPNFNVEI [ECM29] : 2.01
AFIDERASDLRMTIRTR [RRP43] : 1.57
EENFEATRTLVASIQND [YCG1] : 3.24
DTFYMNVESVGSIPVDQ [RPB3] : 2.43
HKTMSIVGVLQDDADPM [RPT2] : 1.3
TFNNQDKGLLPYAIMET [RPO31] : 2.46

Ask: # query: protein stability index of entry YHRLSNKDMIKNLVKVL [CSN12]
Result: 2.97
